Values were extracted from ChEMBL document CHEMBL1145080.

# ASSAY: Pharmacokinetic parameter Tmax was determined in male Wistar rat after 100 mg/kg oral dose of the compound
# Format: ADME, organism-based
# Set-up: dose 100 mg/kg, route oral
# SETTINGS: in vivo

COMPOUND | READOUT_UNITS | Tmax
COc1ccc(-c2cc(C(F)(F)F)nn2-c2ccc(S(N)(=O)=O)cc2F)cc1 | h | 7.5
Cc1ccc(-c2cc(C(F)(F)F)nn2-c2ccc(S(N)(=O)=O)cc2)cc1 [CELECOXIB] | h | 3.25
CS(=O)(=O)c1ccc(C2=C(c3ccccc3)C(=O)OC2)cc1 [ROFECOXIB] | h | 3
CSc1ccc(-c2cc(C(F)(F)F)nn2-c2ccc(S(N)(=O)=O)cc2F)cc1 | h | 1.26
